# Tested on: lambsquarters
# ASSAY SUMMARY: Test C preemergence
# Assay type: in vivo, Chenopodium album
# EXPERIMENTAL SETUP: preemergence, 31 g ai/ha; visual rating, scale 0 to 100 (0 no effect, 100 complete control), 13 to 15 days

| MOLECULE | Lambsquarters plant response rating |
| --- | --- |
| CCCc1cc(C(=O)NCC(F)(F)F)nn1Cc1ccnc(OC(F)F)c1 [Compound 127] | 100 |
| CCOc1cc(C(=O)NCC(F)(F)F)nn1Cc1ccnc(OC(F)F)c1 [Compound 128] | 98 |
| CCc1cc(C(=O)NCC(F)(F)F)nn1Cc1nc(C(F)(F)F)nn1C [Compound 107] | 100 |
| CCCc1cc(C(=O)NC2CC2)nn1Cc1ccnc(OC(F)F)c1 [Compound 205] | 85 |
| CCc1cc(C(=O)NOC(C)C)nn1Cc1ccnc(OC(F)F)c1 [Compound 126] | 85 |
| CCNC(=O)c1cc(CC)n(Cc2cc(C(F)(F)F)nn2C)n1 [Compound 154] | 65 |
| CCOc1cc(C(=O)NOC(C)C)nn1Cc1ccnc(C(F)(F)F)c1 [Compound 153] | 85 |

###

# Test system: soybean
# ASSAY SUMMARY: Test C postemergence
# Format: in vivo, Glycine max
# EXPERIMENTAL SETUP: postemergence, 62 g ai/ha; scale 0 to 100
Mark Fulfilled only for Soybean plant response rating values smaller than 60; exact matches and larger values are Not fulfilled.

| COMPOUND | TGT | LABEL |
| --- | --- | --- |
| CCc1cc(C(=O)NC2CC2)nn1Cc1ccnc(C(F)(F)F)c1 [Compound 76] | soybean | Not fulfilled |
| CCONC(=O)c1cc(CC)n(Cc2cccc(OC(F)(F)F)c2)n1 [Compound 72] | soybean | Fulfilled |
| CCONC(=O)c1cc(CC)n(Cc2ccnc(C(F)(F)F)c2)n1 [Compound 77] | soybean | Fulfilled |
| CCOc1cc(C(=O)NCC(F)(F)F)nn1Cc1ccnc(OC(F)F)c1 [Compound 128] | soybean | Not fulfilled |
| CCc1cc(C(=O)NCC(F)(F)F)nn1Cc1cc(C(F)(F)F)nn1C [Compound 108] | soybean | Not fulfilled |

###

Crabgrass, Large plant response rating (0 to 100 scale) by entry:
# Test system: crabgrass, large
# ASSAY SUMMARY: Test A preemergence
# Format: in vivo, Digitaria sanguinalis
# EXPERIMENTAL SETUP: preemergence, 125 g ai/ha, visual injury approx. 10 days after treatment
ATTRIBUTE MEASURED: Crabgrass, Large plant response rating (0 to 100 scale)

| COMPOUND | EXPERIMENTAL VALUE |
| --- | --- |
| CCCNC(=O)c1cc(CCF)n(Cc2ccnc(C(F)(F)F)c2)n1 [Compound 177] | 100 |
| CCc1cc(C(=O)NCC(F)(F)F)nn1Cc1ccnc(Br)c1 [Compound 224] | 100 |
| CCc1cc(C(=O)NC2CC2)nn1Cc1nnc(C(F)(F)F)o1 [Compound 172] | 50 |
| COCc1cc(C(=O)NC(C)C)nn1Cc1ccnc(C(F)(F)F)c1 [Compound 166] | 100 |
| CCCNC(=O)c1cc(OCC)n(Cc2ccnc(C(F)(F)F)c2)n1 [Compound 187] | 100 |
| COCc1cc(C(=O)NCC(F)(F)F)nn1Cc1cc(C(F)(F)C(F)(F)F)nn1C [Compound 225] | 20 |
| CCCNC(=O)c1cc(CC)n(Oc2cccc(C(F)(F)F)c2)n1 [Compound 216] | 60 |
| CCCCc1cc(C(=O)NOCC)nn1Cc1ccnc(C(F)(F)F)c1 [Compound 152] | 40 |
| CCNC(=O)c1cc(CCF)n(Cc2ccnc(C(F)(F)F)c2)n1 [Compound 178] | 100 |
